Entry source: PubChem BioAssay AID1159580

# assay.text: chemical genetic growth profiling, strain panel (AID 1159580);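 further: tested at 20 µM; growth read once vehicle control cultures reached saturation at 30 °C; lower values mean less growth of the strain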
# conditions.used: S. cerevisiae deletion strains, growth OD, locus YBR231C, strain swc5
Screen size: about 5,500 compounds; about 2,000 (36%) were called active. About 18% were inconclusive and are not listed. No stated cut-off is given here; in the data, active means normalized growth mostly below about 0.91 (no sharp cut-off); inconclusive means no clear call, values can overlap the other calls; inactive means mostly above about 0.92. The list shows a part of the results. *1 amine or outer side, *2 acyl side, *3 side chain or, on linkers, in order; H or OH if unused. Where a SMILES comes first, the peptide text is derived from it. Bridges are numbered along the chain shown (N, C = ends). [ ]: non-standard residue; d: D form. The star is where a group is joined. ξ: configuration not given here. ΔAla(E,3-NHCONH2) = NC(=O)N/C=C(/N)C(=O)O; X2 = NC1=NCCC(C(N[*:1])C(=O)[*:2])N1; ξβ3hOrn = NCCCC(N)CC(=O)*; Dap = NC[CH](N)C(=O)O
Hi! Could you answer with just one of these? active, inactive

Prompt: Field: outcome | Entry: "CC[C@@H](CO)NC(=O)[C@@H]1C=C2c3cccc4[nH]cc(c34)C[C@H]2N(C)C1"
Response: inactive

Prompt: Field: outcome | Entry: "CN(C)C(=N)N=C(N)N"
Response: inactive

Prompt: Field: outcome | Entry: "NC(N)=NC(N)=Nc1ccccc1"
Response: inactive

Prompt: Field: outcome | Entry: NCCCC(N)CC(=O)NCC1NC(=O)C(CO)NC(=O)C(N)CNC(=O)C(C2CCN=C(N)N2)NC(=O)/C(=C\NC(N)=O)NC1=O (stereo not drawn) (H-[Dap]S[Dap](ξβ3hOrn)[ΔAla(E,3-NHCONH2)][X2]; lactam 1-C; configuration not given here)
Response: inactive

Prompt: Field: outcome | Entry: CC1(C)C(=O)[C@@H]2C[C@@]3(O)C4=CC(=O)O[C@@H](c5ccoc5)[C@]4(C)CCC3[C@@](C)(C2=O)[C@H]1CC(=O)O (some centres not stated)
Response: inactive
